test system: Salmonella enteritidis (ATCC 15277); assay type: cell-based; details: ATCC 15277, 12 h
No end group written: not given here.
measurement_type: Minimum Inhibitory Concentration (µg/mL)

substance="RVVKNWPIGRVVKRVVKRVVK [compound 26]" measurement_type="Minimum Inhibitory Concentration" units_symbol=µg/mL measured_result=1
substance="RVLKRVLKRVLKNWPIGRVLK-NH2 [compound 72]" measurement_type="Minimum Inhibitory Concentration" units_symbol=µg/mL measured_result=1
substance="KVLKKVLKKVLKNWPIGKVLK [compound 57]" measurement_type="Minimum Inhibitory Concentration" units_symbol=µg/mL measured_result=1
substance="KLLKKLLKKLLKQWPIGKLLK [compound 38]" measurement_type="Minimum Inhibitory Concentration" units_symbol=µg/mL measured_result=1
substance="RLVKRLVKRLVKNWPIGRLVK [compound 66]" measurement_type="Minimum Inhibitory Concentration" units_symbol=µg/mL measured_result=1
substance="KLLRKLLRKLLRNWPIGKLLR [compound 63]" measurement_type="Minimum Inhibitory Concentration" units_symbol=µg/mL measured_result=2

Where do these numbers come from? They come from patent US7348402B2.
